Attribution: paper PMC12279193

target: recombinant SARS-CoV-2 S-trimer protein; trimeric spike protein (Severe acute respiratory syndrome coronavirus 2, UniProt P0DTC2); experiment: SPR (Biacore T200), spike trimer immobilised on CM5 chip
RESULT TYPE: Kd (µM)
Give a bare numeral; the unit µM is implied.

Incoming: Entry CN(/N=C/c1ccccc1C(=O)O)c1nc(-c2ccccc2Cl)cs1 : reported Kd = ?
Outgoing: 6.88
